# Test system: SNB-75 CNS
# Experimental Protocol: NCI tumour cell line growth inhibition, 48 h
Assay Endpoint: TGI

Compound	Target Desc	TGI
O=C1C[C@@H]2[C@@H](C=CC23CCCC3)N1O	SNB-75 CNS	> 100 µM
COc1ccc(-n2c(C)nc3ccc(NC4OCC(OC(C)=O)C(OC(C)=O)C4OC(C)=O)cc3c2=O)cc1 (stereo not given)	SNB-75 CNS	> 100 µM
c1ccc(Nc2nnc(-c3ccccc3Nc3ccccc3-c3nnc(Nc4ccccc4)s3)s2)cc1	SNB-75 CNS	> 100 µM

// field: TGI; key: CCCCCCCCCCCC(=O)OCC(O)CO (stereo not given) ; value = > 100 µM

The compound Cc1ccccc1-n1c(=O)nc2n(-c3ccc(C(C)(C)C)cc3)c3ccccc3cc-2c1=O showed TGI equal to 66.3 µM

###

# System: OVCAR-8 ovarian
# Experimental Protocol: NCI tumour cell line growth inhibition, 48 h
Each record here notes measured GI50.

Compound	Observed
COc1ccc(C(=O)c2no[n+]([O-])c2C(=O)c2ccc(OC)cc2)cc1	2670 nM
CCCCCCCCCCCCNCCCc1ccccc1	1750 nM
Nc1ccccc1SC(CC(=O)c1ccccc1)c1c(Cl)cccc1Cl (stereo not given)	2630 nM

Value (GI50, OVCAR-8 ovarian) for record O=C(/C=C/c1cccc(Cl)c1)c1ccccc1 = 3320 nM

Record Nc1ncnc2c1ncn2C1OC(F)(COS(N)(=O)=O)C(O)C1O (stereo not given) ; system OVCAR-8 ovarian; GI50 = > 100000 nM

Response field GI50 (OVCAR-8 ovarian) for item COc1cccc(/C=C2\COc3ccc(O)c(O)c3C2=O)c1OC : 2760 nM

Record COc1ccc(/C(=N/O)c2cc(F)c(F)c(OC)c2F)cc1O has OVCAR-8 ovarian GI50 equal to 3100 nM

Entry COc1cc2c(cc1OCCCN1CCN(CCCOc3cc4c(cc3OC)C(=O)N3C[C@H](F)C[C@H]3C=N4)CC1)N=C[C@@H]1C[C@@H](F)CN1C2=O ; assay system OVCAR-8 ovarian; GI50 recorded at 134 nM

Summary: O=C(NCCc1nccs1)c1cnc2c(S)cccc2c1 , OVCAR-8 ovarian, GI50 = 4950 nM

Summary line: CCOC(=O)c1ccc(N[C@@H]2c3cc4c(cc3C(c3cc(OC)c(O)c(OC)c3)[C@H]3C(=O)OCC32)OCO4)cc1 (stereo not given in full) , OVCAR-8 ovarian, reported GI50 = 479 nM

###

Measured GI50, listed per entry for reference.
# System: A498 renal
# Experimental Protocol: NCI tumour cell line growth inhibition, 48 h

Example results:
Cc1cc(N)c2cc(NC(=O)/C=C\c3ccccc3Cl)ccc2n1 1.5 µM
COC(=O)c1cc2c3cc(Cl)ccc3[nH]c2c2ncccc12 > 100 µM
Nc1ncnc2occ(-c3ccc(NC(=O)Nc4cccc(C(F)(F)F)c4)cc3)c12 0.422 µM
C=CC(=O)N1CCN(c2nc(OC[C@@H]3CCCN3C)nc3c(F)c(-c4nc(N)cc(C)c4C(F)(F)F)c(Cl)cc23)[C@@H](C)C1 5.34 µM

GI50 reported for this compound O=NN(CC(=O)NNc1ccccc1)CC(=O)NNc1ccccc1 : > 100 µM

###

# System: CAKI-1 renal
# Experimental Protocol: NCI tumour cell line growth inhibition, 48 h
# TGI annotations

A selection of reference data follows.
Compound	Target Desc	Assay Endpoint	Observed
Cc1ccc(C(=O)c2[nH]c(NCc3ccccc3)c(C(=S)Nc3ccccc3)c2N)cc1	CAKI-1 renal	TGI	27.5 µM
CC1=CC2=C(C=O)C(=O)[C@](C)(O)[C@@H](O)C2=CO1	CAKI-1 renal	TGI	> 100 µM
CC(=O)CC(=O)Nc1ccc(OS(N)(=O)=O)cc1	CAKI-1 renal	TGI	> 100 µM
CCCCCCCCCCCC(=O)OCC(O)CO (stereo unspecified)	CAKI-1 renal	TGI	> 100 µM
c1ccc(CSCCC(SCc2ccccc2)SCc2ccccc2)cc1	CAKI-1 renal	TGI	> 10 µM
O=C(Nc1cccc2[nH]c(C(F)(F)F)nc12)c1ccc(Br)cc1F	CAKI-1 renal	TGI	15.7 µM

The reported TGI of the compound CCOC(=O)c1c(C)n(Cc2ccc(Cl)cc2Cl)c2c1cc(O)c1[nH]c(Cc3ccccc3)nc12 was 26.8 µM

Kindly note the recorded TGI for CN(C)Cc1nsc(N(C)C)n1 , which is > 100 µM

get_value(item= CSc1cc(Cl)c(C(=O)Nc2ccccc2)cc1S(=O)(=O)n1cc[nH]c1=O , readout=TGI) returns > 100 µM

Lab note: CC(=O)OC1C(C)OC(Oc2c(-c3ccc(O)cc3)oc3cc(O)cc(O)c3c2=O)C(O)C1OC(C)=O (stereo unspecified) gave TGI of > 100 µM

The value of TGI measured for the compound O=C1C=C(c2ccccc2)NC1(c1ccccc1)c1cc(-c2ccccc2)[nH]c1-c1ccccc1 (stereo unspecified) turned out to be > 100 µM

# credit: PubChem BioAssay (NCI)
